# measuredTarget: Somatostatin sst4 (Homo sapiens, UniProt P31391)
# Construct: host or cells: CHO-K1
# Sequence (P31391 whole entry): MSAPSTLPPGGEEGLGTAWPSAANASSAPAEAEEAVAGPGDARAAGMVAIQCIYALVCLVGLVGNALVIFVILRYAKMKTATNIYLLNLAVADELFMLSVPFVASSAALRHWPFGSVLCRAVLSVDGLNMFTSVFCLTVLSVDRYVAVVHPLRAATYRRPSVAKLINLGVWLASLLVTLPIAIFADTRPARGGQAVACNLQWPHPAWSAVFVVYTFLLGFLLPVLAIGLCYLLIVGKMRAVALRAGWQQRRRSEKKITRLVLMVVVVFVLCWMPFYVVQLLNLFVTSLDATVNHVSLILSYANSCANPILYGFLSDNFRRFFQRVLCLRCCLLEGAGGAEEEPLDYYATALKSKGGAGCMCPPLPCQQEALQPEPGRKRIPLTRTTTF
# methodSummary: Somatostatin sst4 radioligand binding assay
propertyLabel: IC50
Give the number first and the unit second.

Form field IC50, entry CN1C(=O)N(Cc2c[nH]c3ccccc23)C(=O)C12CCN(C(=O)CCCN)c1cc(Oc3ccccc3)ccc12 (stereo not shown) : 6 µM

---

# measuredTarget: Somatostatin sst1 (Homo sapiens)
# Construct: host or cells: CHO-K1
# Sequence (P30872 whole entry): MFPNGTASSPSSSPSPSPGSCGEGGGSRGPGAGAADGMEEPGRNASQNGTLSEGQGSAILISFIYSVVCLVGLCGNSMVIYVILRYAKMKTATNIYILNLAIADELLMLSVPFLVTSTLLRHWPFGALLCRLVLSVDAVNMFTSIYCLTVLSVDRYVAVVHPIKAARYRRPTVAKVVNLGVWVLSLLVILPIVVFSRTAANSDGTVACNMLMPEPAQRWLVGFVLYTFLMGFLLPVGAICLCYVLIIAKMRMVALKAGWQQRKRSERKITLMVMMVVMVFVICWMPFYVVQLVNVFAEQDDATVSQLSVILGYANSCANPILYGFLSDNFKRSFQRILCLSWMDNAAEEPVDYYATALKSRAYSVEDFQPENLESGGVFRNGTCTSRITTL
# methodSummary: Somatostatin sst1 radioligand binding assay
propertyLabel: pIC50
Note: pIC50 values are expressed as the negative base-10 logarithm of concentration in M.

Form field pIC50, entry CN1C(=O)N(Cc2c[nH]c3ccccc23)C2(CCN(CCCCN)c3cc(Oc4ccccc4)ccc32)C1=O (centres unmarked) : 5.49

Shifting focus to the compound that follows.
Form field pIC50, entry CN1C(=O)N(Cc2c[nH]c3ccccc23)C(=O)C12CCN(C(=O)CCCN)c1cc(Oc3ccccc3)ccc12 (centres unmarked) : 5.19
